- test_target: Beta-secretase 1 (Homo sapiens, UniProt P56817)
- Sequence (P56817 whole entry): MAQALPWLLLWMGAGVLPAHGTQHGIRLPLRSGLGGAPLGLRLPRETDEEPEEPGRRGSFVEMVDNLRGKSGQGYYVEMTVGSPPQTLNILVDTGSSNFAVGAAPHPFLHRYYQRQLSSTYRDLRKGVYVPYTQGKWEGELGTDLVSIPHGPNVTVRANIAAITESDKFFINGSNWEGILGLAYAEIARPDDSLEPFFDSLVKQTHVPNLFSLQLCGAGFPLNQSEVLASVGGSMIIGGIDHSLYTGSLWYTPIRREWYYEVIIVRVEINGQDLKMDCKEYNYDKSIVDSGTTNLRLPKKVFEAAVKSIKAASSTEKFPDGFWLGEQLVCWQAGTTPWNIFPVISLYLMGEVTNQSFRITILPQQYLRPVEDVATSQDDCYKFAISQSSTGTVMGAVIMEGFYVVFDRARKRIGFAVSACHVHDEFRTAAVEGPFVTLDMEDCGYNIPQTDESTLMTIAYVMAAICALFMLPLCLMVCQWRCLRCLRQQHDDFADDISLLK
Consider the following molecules; for each one, report its Kd.
Respond with the bare value in µM.

Entry CC1(C)NC(=N)N(Cc2cccc(Cl)c2)C1=O has what Kd?
200

Another: CC(C)CC1(C)NC(=N)N(Cc2cccc(Cl)c2)C1=O (configuration not stated)
123

---

- assay_method_text: Ratio of drug level in brain to plasma of rat at 10 mg/kg, po
- Format: ADME, organism-based
- Set-up: dose 10 mg/kg, route oral
Consider the following compounds; for each one, report its Kp.
Give the figure by itself; no unit, no explanation.

Entry CN1C(=N)N[C@](CCC2CCCCC2)(CC2CCCCC2)C1=O has what Kp?
0.9

Another: CN1C(=O)C(c2ccccc2)(c2ccccc2)N=C1N
1.8
